Test system: LXRa:RXRa (NR concentration 270 nM, RXRa partner concentration 90 nM)
EXPERIMENT_NOTES: PBM binding z-score (relative to random genomic background probes); higher = stronger binding; sequences stand for … in GC…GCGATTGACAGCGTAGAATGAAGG
I would appreciate it if you labelled entries MET when PBM binding z-score is 1 or higher, otherwise NOT MET.

>  <RESIDUE_STRING>
CGCCAAAGTTCAAGGTAACGTAACAGAAAGCAGC

>  <CLASSIFICATION>
MET

$$$$
>  <RESIDUE_STRING>
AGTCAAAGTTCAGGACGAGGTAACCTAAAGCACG

>  <CLASSIFICATION>
MET

$$$$
>  <RESIDUE_STRING>
GCTTGTAGATCAAGGTTAAGCAAGACTAAGCTAA

>  <CLASSIFICATION>
NOT MET

$$$$
>  <RESIDUE_STRING>
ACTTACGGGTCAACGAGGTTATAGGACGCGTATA

>  <CLASSIFICATION>
MET

$$$$
>  <RESIDUE_STRING>
TCTTGCAGGCCAGAGGGTCACTCAAGAGGTACGG

>  <CLASSIFICATION>
MET

$$$$
>  <RESIDUE_STRING>
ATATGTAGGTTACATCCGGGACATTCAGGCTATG

>  <CLASSIFICATION>
MET

$$$$
>  <RESIDUE_STRING>
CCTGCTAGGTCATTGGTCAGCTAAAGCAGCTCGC

>  <CLASSIFICATION>
MET

$$$$
>  <RESIDUE_STRING>
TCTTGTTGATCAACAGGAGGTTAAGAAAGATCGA

>  <CLASSIFICATION>
MET

$$$$
>  <RESIDUE_STRING>
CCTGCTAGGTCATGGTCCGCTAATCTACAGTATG

>  <CLASSIFICATION>
MET

$$$$
>  <RESIDUE_STRING>
GCGACTGGGGCAAAGCAAGTTACCATAAGGTTGG

>  <CLASSIFICATION>
NOT MET

$$$$
>  <RESIDUE_STRING>
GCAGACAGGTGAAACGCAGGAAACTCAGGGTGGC

>  <CLASSIFICATION>
NOT MET

$$$$
>  <RESIDUE_STRING>
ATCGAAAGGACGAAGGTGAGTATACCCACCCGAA

>  <CLASSIFICATION>
NOT MET

$$$$
>  <RESIDUE_STRING>
TCTGCAAGGTCAACGATGGTCAGCTAATCTGCTA

>  <CLASSIFICATION>
MET

$$$$
>  <RESIDUE_STRING>
CCAGACAGGTGAGAAGGTAGCTCAGCCTCGATTA

>  <CLASSIFICATION>
NOT MET

$$$$
>  <RESIDUE_STRING>
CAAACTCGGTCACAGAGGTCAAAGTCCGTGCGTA

>  <CLASSIFICATION>
MET

$$$$
>  <RESIDUE_STRING>
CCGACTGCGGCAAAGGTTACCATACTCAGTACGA

>  <CLASSIFICATION>
MET

$$$$
>  <RESIDUE_STRING>
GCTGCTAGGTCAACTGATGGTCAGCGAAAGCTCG

>  <CLASSIFICATION>
MET

$$$$
>  <RESIDUE_STRING>
ACAGACAGATGATGAAGGTAACTCAGGCTATCAT

>  <CLASSIFICATION>
NOT MET

$$$$
>  <RESIDUE_STRING>
CCTGCTAGATCAATGGTCAGCTAAAGCAGCTCGC

>  <CLASSIFICATION>
NOT MET

$$$$
>  <RESIDUE_STRING>
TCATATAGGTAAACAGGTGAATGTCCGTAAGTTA

>  <CLASSIFICATION>
MET

$$$$
>  <RESIDUE_STRING>
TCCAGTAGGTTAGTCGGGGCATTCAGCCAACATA

>  <CLASSIFICATION>
NOT MET

$$$$
>  <RESIDUE_STRING>
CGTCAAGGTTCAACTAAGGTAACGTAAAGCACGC

>  <CLASSIFICATION>
MET

$$$$
>  <RESIDUE_STRING>
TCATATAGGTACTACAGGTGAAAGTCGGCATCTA

>  <CLASSIFICATION>
MET

$$$$
>  <RESIDUE_STRING>
GCTTACGGGTCAAAGGGTATAGCATGAATAGAAT

>  <CLASSIFICATION>
MET

$$$$
>  <RESIDUE_STRING>
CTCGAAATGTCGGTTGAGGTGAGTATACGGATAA

>  <CLASSIFICATION>
NOT MET

$$$$
>  <RESIDUE_STRING>
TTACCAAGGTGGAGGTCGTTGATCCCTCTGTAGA

>  <CLASSIFICATION>
MET

$$$$
>  <RESIDUE_STRING>
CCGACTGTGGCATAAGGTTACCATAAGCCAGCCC

>  <CLASSIFICATION>
MET

$$$$
>  <RESIDUE_STRING>
CCTTGCGGGTCAAGGTTATAGCACGGGTGGTACG

>  <CLASSIFICATION>
MET

$$$$
>  <RESIDUE_STRING>
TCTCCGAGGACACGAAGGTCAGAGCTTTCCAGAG

>  <CLASSIFICATION>
NOT MET

$$$$
>  <RESIDUE_STRING>
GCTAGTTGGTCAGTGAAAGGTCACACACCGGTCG

>  <CLASSIFICATION>
MET

$$$$
>  <RESIDUE_STRING>
ATATCAAGGTGATCGTGAGGTCGTTGATACTAAC

>  <CLASSIFICATION>
MET

$$$$
>  <RESIDUE_STRING>
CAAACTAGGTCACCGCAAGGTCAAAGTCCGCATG

>  <CLASSIFICATION>
MET

$$$$

Reference source: the supplement of paper PMC6555819
